Molecular target: Human CYP8B1 (Homo sapiens, UniProt Q9UNU6)
Sequence (Q9UNU6 1-501): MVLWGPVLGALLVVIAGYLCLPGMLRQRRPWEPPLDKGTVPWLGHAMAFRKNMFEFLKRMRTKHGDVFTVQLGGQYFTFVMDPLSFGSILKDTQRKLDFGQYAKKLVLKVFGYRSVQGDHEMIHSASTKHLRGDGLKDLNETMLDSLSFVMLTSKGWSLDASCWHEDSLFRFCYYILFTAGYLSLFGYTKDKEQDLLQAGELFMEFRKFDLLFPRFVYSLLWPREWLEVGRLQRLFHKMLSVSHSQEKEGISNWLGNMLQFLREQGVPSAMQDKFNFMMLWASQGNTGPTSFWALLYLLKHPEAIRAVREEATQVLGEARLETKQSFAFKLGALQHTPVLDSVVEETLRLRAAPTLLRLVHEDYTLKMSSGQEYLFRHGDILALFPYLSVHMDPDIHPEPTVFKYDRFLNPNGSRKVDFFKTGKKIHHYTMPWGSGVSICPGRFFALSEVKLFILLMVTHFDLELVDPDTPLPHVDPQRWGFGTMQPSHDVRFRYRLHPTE
Assay: Human CYP8B1 Liver Microsome Assay
Details: Human CYP8B1 IC50, human liver microsomes; substrate 7a-hydroxy-4-cholesten-3-one, NADPH; RapidFire MS detection of 7α,12α-dihydroxy-4-cholesten-3-one
pIC50: −log10 of the molar value.
Please enter t where pIC50 is greater than or equal to 9, and f where it is lower.

{"chem_smiles": "Cc1nc2ccc(Cl)cc2c(N2CC[C@H](C(=O)N3CCc4oncc4C3)[C@H](C)C2)c1C#N", "cat": "f"}
{"chem_smiles": "N#Cc1cnc2ccc(Cl)cc2c1N1CCC(C(=O)N2CCc3c(C(F)(F)F)n[nH]c3C2)CC1", "cat": "f"}
{"chem_smiles": "COc1ccc2c(N3CC[C@H](C(=O)N4CCn5c(nnc5C(F)(F)F)C4)[C@H](C)C3)c(C#N)cnc2c1C", "cat": "t"}
{"chem_smiles": "Cc1nc2c(F)cc(F)cc2c(N2CC[C@H](C(=O)N3CCn4c(nnc4C(F)(F)F)C3)[C@H](C)C2)c1C#N", "cat": "f"}

Ask | In plain terms: is recorded pIC50 at least 9 for C[C@@H]1CN(c2c(C#N)cnc3c(F)cc(C4CCC4)cc23)CC[C@@H]1C(=O)N1CCn2c(nnc2C(F)(F)F)C1 ?
Reply | t

----------
Target: Human CYP8B1 (Homo sapiens)
Assay: Human CYP8B1 Liver Microsome Assay
Details: Human CYP8B1 IC50, human liver microsomes; substrate 7a-hydroxy-4-cholesten-3-one, NADPH; RapidFire MS detection of 7α,12α-dihydroxy-4-cholesten-3-one
observation_type: pIC50
Remember, pIC50 is on a log scale: it is -log10 of the molar concentration.

Would you please look over these solved cases?
{"compound": "C[C@H]1CN(c2c(C#N)cnc3c(F)c(Cl)ccc23)CC[C@H]1C(=O)N1CCn2c(nnc2C2CC2)C1", "pIC50": 6.50}
{"compound": "N#Cc1cnc2cc(Br)ccc2c1N1CCC(C(=O)N2CCn3c(nnc3C(F)(F)F)C2)CC1", "pIC50": 7.92}
{"compound": "[2H]C([2H])([2H])Oc1ccc2c(N3CC[C@H](C(=O)N4CCn5c(nnc5C(F)(F)F)C4)[C@H](C)C3)c(C#N)cnc2c1", "pIC50": 9.46}
{"compound": "C[C@@H]1CN(c2c(C#N)cnc3c2CCN(C(=O)OC2(C)CC2)C3)CC[C@@H]1C(=O)N1CCn2c(nnc2C2CC2)C1", "pIC50": 8.70}

Alright, here's another compound for you.
Ask | What reported pIC50 corresponds to C[C@@H]1CN(c2c(C#N)cnc3ccc(Cl)cc23)CC[C@@H]1C(=O)N1CCn2c(nnc2C(F)(F)F)C1 (single isomer, unassigned) [Example 116a] on Human CYP8B1 (Homo sapiens)?
Reply | 9.40

All values here come from patent US10414774B2.
